For each of the compounds below, state its Bliss interaction score.
Tested on: S. aureus DSM 20231
Experiment: Bliss interaction score (quartile over a dose matrix) (fitness difference); higher = more antagonism (negative = synergy);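 further: first quartile when negative (synergy) and third quartile when positive (antagonism)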
Numbers only.

Take a look at these entries with their results.
>  <compound>
CC[C@H]1OC(=O)[C@H](C)[C@@H](O[C@H]2C[C@@](C)(OC)[C@@H](O)[C@H](C)O2)[C@H](C)[C@@H](O[C@@H]2O[C@H](C)C[C@H](N(C)C)[C@H]2O)[C@](C)(O)C[C@@H](C)C(=O)[C@H](C)[C@@H](O)[C@]1(C)O [Erythromycin] + C[C@@H]1O[C@@H]1P(=O)(O)O [Fosfomycin]

>  <target-entity>
S. aureus DSM 20231

>  <Bliss interaction score>
-0.0365

$$$$
>  <compound>
CC(C)Cc1ccc(C(C)C(=O)O)cc1 (centres undefined) [Ibuprofen] + C/C(=C\C(=O)OCCCCCCCCC(=O)O)C[C@@H]1OC[C@H](C[C@@H]2O[C@H]2[C@@H](C)[C@H](C)O)[C@@H](O)[C@H]1O [Pseudomonic acid]

>  <target-entity>
S. aureus DSM 20231

>  <Bliss interaction score>
0.169

$$$$
>  <compound>
CC[C@H](c1ccc(O)cc1)[C@@H](CC)c1ccc(O)cc1 [Hexestrol] + CO[C@@]12[C@H](COC(N)=O)C3=C(C(=O)C(C)=C(N)C3=O)N1C[C@@H]1N[C@@H]12 [MitomycinC]

>  <target-entity>
S. aureus DSM 20231

>  <Bliss interaction score>
-0.248

$$$$

Then this compound:
Query: Under S. aureus DSM 20231: report Bliss interaction score of CN[C@@H]1[C@H](O[C@H]2[C@H](O[C@H]3[C@H](O)[C@@H](O)[C@H](N=C(N)N)[C@@H](O)[C@@H]3N=C(N)N)O[C@@H](C)[C@]2(O)C=O)O[C@@H](CO)[C@H](O)[C@H]1O [Streptomycin] + CCCSc1nc(N[C@@H]2C[C@H]2c2ccc(F)c(F)c2)c2nnn([C@@H]3C[C@H](OCCO)[C@@H](O)[C@H]3O)c2n1 [Ticagrelor] .
Reply: -0.259

###

Test system: B. subtilis 168
Assay: Bliss interaction score (quartile over a dose matrix) (fitness difference); higher = more antagonism (negative = synergy)
Settings: main component drawn
quantity-measured: Bliss interaction score
Answers are plain numbers.

Past entries and their recorded results:
>  <compound>
CC[C@H](C)[C@H](N)C1=N[C@H](C(=O)N[C@@H](CC(C)C)C(=O)N[C@H](CCC(=O)O)C(=O)N[C@H](C(=O)N[C@H]2CCCCNC(=O)[C@H](CC(N)=O)NC(=O)[C@@H](CC(=O)O)NC(=O)[C@H](Cc3cnc[nH]3)NC(=O)[C@@H](Cc3ccccc3)NC(=O)[C@H]([C@@H](C)CC)NC(=O)[C@@H](CCCN)NC2=O)[C@@H](C)CC)CS1 [Bacitracin] + CO/N=C(\C(=O)N[C@@H]1C(=O)N2C(C(=O)O)=C(COC(N)=O)CS[C@H]12)c1ccco1 [Cefuroxime]

>  <quantity-measured>
Bliss interaction score

>  <readout-number>
-0.0903

$$$$
>  <compound>
CC[C@H](C)[C@H](N)C1=N[C@H](C(=O)N[C@@H](CC(C)C)C(=O)N[C@H](CCC(=O)O)C(=O)N[C@H](C(=O)N[C@H]2CCCCNC(=O)[C@H](CC(N)=O)NC(=O)[C@@H](CC(=O)O)NC(=O)[C@H](Cc3cnc[nH]3)NC(=O)[C@@H](Cc3ccccc3)NC(=O)[C@H]([C@@H](C)CC)NC(=O)[C@@H](CCCN)NC2=O)[C@@H](C)CC)CS1 [Bacitracin] + CN(C)c1cc(NC(=O)CNC(C)(C)C)c(O)c2c1C[C@H]1C[C@H]3[C@H](N(C)C)C(O)=C(C(N)=O)C(=O)[C@@]3(O)C(O)=C1C2=O [Tigecycline]

>  <quantity-measured>
Bliss interaction score

>  <readout-number>
0.0848

$$$$
>  <compound>
CC[C@H](C)[C@H](N)C1=N[C@H](C(=O)N[C@@H](CC(C)C)C(=O)N[C@H](CCC(=O)O)C(=O)N[C@H](C(=O)N[C@H]2CCCCNC(=O)[C@H](CC(N)=O)NC(=O)[C@@H](CC(=O)O)NC(=O)[C@H](Cc3cnc[nH]3)NC(=O)[C@@H](Cc3ccccc3)NC(=O)[C@H]([C@@H](C)CC)NC(=O)[C@@H](CCCN)NC2=O)[C@@H](C)CC)CS1 [Bacitracin] + O=C1CN(/N=C/c2ccc([N+](=O)[O-])o2)C(=O)N1 [Nitrofurantoin]

>  <quantity-measured>
Bliss interaction score

>  <readout-number>
-0.192

$$$$
>  <compound>
CC[C@H](C)[C@H](N)C1=N[C@H](C(=O)N[C@@H](CC(C)C)C(=O)N[C@H](CCC(=O)O)C(=O)N[C@H](C(=O)N[C@H]2CCCCNC(=O)[C@H](CC(N)=O)NC(=O)[C@@H](CC(=O)O)NC(=O)[C@H](Cc3cnc[nH]3)NC(=O)[C@@H](Cc3ccccc3)NC(=O)[C@H]([C@@H](C)CC)NC(=O)[C@@H](CCCN)NC2=O)[C@@H](C)CC)CS1 [Bacitracin] + CC(=O)O[C@H]1C[C@@]2(C)[C@@H](C[C@@H](O)[C@H]3[C@@]4(C)CC[C@@H](O)[C@@H](C)[C@@H]4CC[C@@]32C)/C1=C(\CCC=C(C)C)C(=O)O [Fusidic acid]

>  <quantity-measured>
Bliss interaction score

>  <readout-number>
-0.166

$$$$
>  <compound>
CC[C@H](C)[C@H](N)C1=N[C@H](C(=O)N[C@@H](CC(C)C)C(=O)N[C@H](CCC(=O)O)C(=O)N[C@H](C(=O)N[C@H]2CCCCNC(=O)[C@H](CC(N)=O)NC(=O)[C@@H](CC(=O)O)NC(=O)[C@H](Cc3cnc[nH]3)NC(=O)[C@@H](Cc3ccccc3)NC(=O)[C@H]([C@@H](C)CC)NC(=O)[C@@H](CCCN)NC2=O)[C@@H](C)CC)CS1 [Bacitracin] + C[C@H]1c2cccc(O)c2C(=O)C2=C(O)[C@]3(O)C(=O)C(C(N)=O)=C(O)[C@@H](N(C)C)[C@@H]3[C@@H](O)[C@@H]21 [Doxycycline]

>  <quantity-measured>
Bliss interaction score

>  <readout-number>
-0.0867

$$$$
>  <compound>
CC[C@H](C)[C@H](N)C1=N[C@H](C(=O)N[C@@H](CC(C)C)C(=O)N[C@H](CCC(=O)O)C(=O)N[C@H](C(=O)N[C@H]2CCCCNC(=O)[C@H](CC(N)=O)NC(=O)[C@@H](CC(=O)O)NC(=O)[C@H](Cc3cnc[nH]3)NC(=O)[C@@H](Cc3ccccc3)NC(=O)[C@H]([C@@H](C)CC)NC(=O)[C@@H](CCCN)NC2=O)[C@@H](C)CC)CS1 [Bacitracin] + C1=CC(=CC(=C1)Cl)NN=C(C#N)C#N [CCCP]

>  <quantity-measured>
Bliss interaction score

>  <readout-number>
0.0608

$$$$
>  <compound>
CC[C@H](C)[C@H](N)C1=N[C@H](C(=O)N[C@@H](CC(C)C)C(=O)N[C@H](CCC(=O)O)C(=O)N[C@H](C(=O)N[C@H]2CCCCNC(=O)[C@H](CC(N)=O)NC(=O)[C@@H](CC(=O)O)NC(=O)[C@H](Cc3cnc[nH]3)NC(=O)[C@@H](Cc3ccccc3)NC(=O)[C@H]([C@@H](C)CC)NC(=O)[C@@H](CCCN)NC2=O)[C@@H](C)CC)CS1 [Bacitracin] + Clc1ccc(COC(Cn2ccnc2)c2ccc(Cl)cc2Cl)c(Cl)c1 [Miconazole]

>  <quantity-measured>
Bliss interaction score

>  <readout-number>
-0.0878

$$$$
>  <compound>
CC[C@H](C)[C@H](N)C1=N[C@H](C(=O)N[C@@H](CC(C)C)C(=O)N[C@H](CCC(=O)O)C(=O)N[C@H](C(=O)N[C@H]2CCCCNC(=O)[C@H](CC(N)=O)NC(=O)[C@@H](CC(=O)O)NC(=O)[C@H](Cc3cnc[nH]3)NC(=O)[C@@H](Cc3ccccc3)NC(=O)[C@H]([C@@H](C)CC)NC(=O)[C@@H](CCCN)NC2=O)[C@@H](C)CC)CS1 [Bacitracin] + CC(C1CCC(C(O1)OC2C(CC(C(C2O)OC3C(C(C(CO3)(C)O)NC)O)N)N)N)NC [Gentamicin]

>  <quantity-measured>
Bliss interaction score

>  <readout-number>
-0.298

$$$$

Read the next record carefully.
Query: Provide only the value of recorded Bliss interaction score for CC[C@H](C)[C@H](N)C1=N[C@H](C(=O)N[C@@H](CC(C)C)C(=O)N[C@H](CCC(=O)O)C(=O)N[C@H](C(=O)N[C@H]2CCCCNC(=O)[C@H](CC(N)=O)NC(=O)[C@@H](CC(=O)O)NC(=O)[C@H](Cc3cnc[nH]3)NC(=O)[C@@H](Cc3ccccc3)NC(=O)[C@H]([C@@H](C)CC)NC(=O)[C@@H](CCCN)NC2=O)[C@@H](C)CC)CS1 [Bacitracin] + O=C(O)c1cn(C2CC2)c2cc(N3CCNCC3)c(F)cc2c1=O [Ciprofloxacin]
Reply: -0.0665
